quantity: melting point

CC(C)(C)C(O)(CCc1ccc(Cl)c(Cl)c1)Cn1nc[nH]c1=S (centres unmarked)
155 to 157 °C

Prompt line: Specify reported melting point for the compound shown: CC(C)(C)C(O)(CCc1ccc(F)cc1)Cn1nc[nH]c1=S (centres unmarked)
Response line: 134 to 135 °C

Prompt line: State its melting point: CC(C)(C)C(O)(CCc1ccc(F)cc1F)Cn1nc[nH]c1=S (centres unmarked)
Response line: 130 to 132 °C

Prompt line: Specify measured melting point for CC(C)(C)C(O)(CCc1ccc(C(F)(F)F)cc1)Cn1nc[nH]c1=S (centres unmarked) .
Response line: 139 to 140 °C

Prompt line: // Input: Cc1ccc(CCC(O)(Cn2nc[nH]c2=S)C(C)(C)C)cc1 (centres unmarked) . Output its melting point only.
Response line: 137 to 138 °C
